# Run description: Single rising oral dose Phase 1 PK, healthy adults (young males unless stated)
# Format: in vivo, human
# Run conditions: male, human, plasma, oral, 200 mg, single 200 mg; read-out: t1/2 (converted)
Reported property: half-life (days)
Report the value in days with no unit label.

I have this compound here, `O=C(Nc1ccc(C[C@@H]2CC[C@H]([C@H](O)c3ccccc3)N2)cc1)[C@@H]1CCc2nccc(=O)n21` , and I need its recorded half-life.
3.14

* * *

# Run description: Multiple rising dose Phase 1 PK, healthy subjects, day 14 (young males unless stated)
# Format: in vivo, human
# Run conditions: male, human, plasma, oral, 400 mg, 400 mg QD; read-out: AUC0-24
Reported property: AUC(0-t)

I have this compound here, O=C(Nc1ccc(C[C@@H]2CC[C@H]([C@H](O)c3ccccc3)N2)cc1)[C@@H]1CCc2nccc(=O)n21 [Vibegron] , and I need its recorded AUC(0-t).
10500 ng·h/mL

* * *

# Run description: Multiple rising dose Phase 1 PK, healthy subjects, day 14 (young males unless stated)
# Assay type: in vivo, human
# Run conditions: male, human, plasma, oral, 50 mg, 50 mg QD; read-out: t1/2 (converted)
Reported property: half-life
Please don't drop the unit; write it after the number.

I have this compound here, `O=C(Nc1ccc(C[C@@H]2CC[C@H]([C@H](O)c3ccccc3)N2)cc1)[C@@H]1CCc2nccc(=O)n21` , and I need its recorded half-life.
77.2 h

* * *

# Run description: Drug interaction: effect of conmed on vibegron PK
# Format: in vivo, human
# Run conditions: human, in vivo, oral, with diltiazem; read-out: GM t1/2 (converted)
Reported property: half-life (days)
Report the value in days with no unit label.

I have this molecule here, `O=C(Nc1ccc(C[C@@H]2CC[C@H]([C@H](O)c3ccccc3)N2)cc1)[C@@H]1CCc2nccc(=O)n21` , and I need its recorded half-life.
3.14

* * *

# Run description: clinical
# Run conditions: human, in vivo, 0.15 mg, AUC
Reported property: AUC (ng·h/mL)
Report the value in ng·h/mL with no unit label.

I have this compound here, `C#C[C@]1(O)CC[C@H]2[C@@H]3CCC4=CC(=O)CC[C@@H]4[C@H]3CC[C@@]21CC` , and I need its recorded AUC.
31

* * *

# Run description: clinical
# Run conditions: human, in vivo, 0.03 mg, AUC
Reported property: AUC (ng·h/mL)
Report the value in ng·h/mL with no unit label.

I have this compound here, `C#C[C@]1(O)CC[C@H]2[C@@H]3CCc4cc(O)ccc4[C@H]3CC[C@@]21C` , and I need its recorded AUC.
0.81

* * *

# Run description: Multiple rising dose Phase 1 PK, healthy subjects, day 14 (young males unless stated)
# Assay type: in vivo, human
# Run conditions: human, plasma, oral, young and elderly subjects; read-out: terminal t1/2
# From the text: The steady state AUC geometric mean accumulation ratios were ˜2 in young male subjects and ˜2.8 in elderly subjects (male and female). Although exposures were similar in middle-aged males when compared to young males, plasma concentrations were higher in elderly compared to middle-aged and young subjects. […] Furthermore, the steady state AUC geometric mean accumulation ratios were ˜2 in young males and ˜2.8 in the elderly.
Reported property: half-life

I have this compound here, O=C(Nc1ccc(C[C@@H]2CC[C@H]([C@H](O)c3ccccc3)N2)cc1)[C@@H]1CCc2nccc(=O)n21 [Vibegron] , and I need its recorded half-life.
59 to 94 h
